Each recorded value in this set is attributed to paper PMC9706033.

- Experiment Notes: Stability against oxidative degradation in buffer solutions and cell culture medium
- Type: physicochemical
- Settings: DMEM cell culture medium without FBS; DMEM (without FBS), 37°C, up to 72 h; read-out: Half-life, t1/2 (converted)
Metric: half-life at 10 mM

Prompt line: Sample OC[C@H]1O[C@@H](Oc2cc(O)cc(/C=C/c3ccc(O)cc3)c2)[C@H](O)[C@@H](O)[C@@H]1O — what was its half-life at 10 mM?
Response line: > 72 h

Prompt line: I would be grateful if you could share the reported half-life at 10 mM for Oc1ccc(/C=C/c2cc(O)cc(O)c2)cc1 [resveratrol, trans-3,5,4′-trihydroxystilbene] .
Response line: > 72 h

* * *

- Experiment Notes: Water solubility determination (UPLC of supernatant)
- Type: physicochemical
- Settings: thermodynamic from solid; distilled water, sonicated 1 h at room temperature; read-out: Water solubility
Metric: solubility at 1 h (µg/mL)
Respond with the bare value in µg/mL.

Prompt line: # solubility at 1 h lookup, item OC[C@H]1O[C@@H](Oc2cc(O)cc(/C=C/c3ccc(O)cc3)c2)[C@H](O)[C@@H](O)[C@@H]1O
Response line: 137

* * *

- Experiment Notes: Water solubility determination (UPLC of supernatant)
- Type: physicochemical
- Settings: thermodynamic from solid; distilled water, sonicated 1 h at room temperature; read-out: Water solubility (molar)
Metric: solubility at 1 h (µM)
Respond with the bare value in µM.

Prompt line: Form field: reported solubility at 1 h of OC[C@H]1O[C@@H](Oc2cc(O)cc(/C=C/c3ccc(O)cc3)c2)[C@H](O)[C@@H](O)[C@@H]1O
Response line: 351

* * *

- Experiment Notes: Hydroxyl radical scavenging assay
- Settings: at 30 min
Kindly state EC50 for each of the entries shown.
Write the number in µM without appending the unit.

Prompt line: Which EC50 reading was recorded for the molecule OC[C@H]1O[C@@H](Oc2cc(O)cc(/C=C/c3ccc(O)cc3)c2)[C@H](O)[C@@H](O)[C@@H]1O ?
Response line: 215

Prompt line: Reported EC50 for Oc1ccc(/C=C/c2cc(O)cc(O)c2)cc1 [resveratrol, trans-3,5,4′-trihydroxystilbene] : what is it?
Response line: 138
